These entries and their values trace back to PubChem BioAssay.

assay: growth inhibition, single agents and combos, LFS_MB_2R, cell-based, cisplatin combos, synergistic combos for chromothripsis tumors (AID 1671457); conditions: LFS_MB_2R medulloblastoma cells, measured here: combination with cisplatin, at 5 µM, stronger effect = higher value;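 further: cells exposed to compound for four days before readout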
reported-metric: inhibition (%)
The reply should be a number in %, with the unit left off.

Below: 4 molecules and their reported inhibition.
[
  {
    "molecule": "Nc1ccccc1NC(=O)c1cnccn1",
    "reported-metric": "inhibition",
    "quantitative-result": 1.58
  },
  {
    "molecule": "O=c1cc(-c2ccc(O)cc2)[nH]c(=S)[nH]1",
    "reported-metric": "inhibition",
    "quantitative-result": -5.06
  },
  {
    "molecule": "CC(C)c1ccc(-c2cc(=O)c3ccccc3o2)cc1",
    "reported-metric": "inhibition",
    "quantitative-result": 41.6
  },
  {
    "molecule": "C[n+]1ccc(-c2c3nc(c(-c4cc[n+](C)cc4)c4ccc([nH]4)c(-c4cc[n+](C)cc4)c4nc(c(-c5cc[n+](C)cc5)c5ccc2[nH]5)C=C4)C=C3)cc1",
    "reported-metric": "inhibition",
    "quantitative-result": -12.4
  }
]

Lookup: Given the entry Cc1c(Br)cc(NCC(=O)N/N=C/c2cc([N+](=O)[O-])ccc2O)cc1Br , report its measured inhibition.
Found: -37.8

Lookup: Given the entry CC(C)(C#N)c1ccc(N2C(=O)OCc3cnc4ccc(-c5cnc6ccccc6c5)cc4c32)cc1 , report its measured inhibition.
Found: -39.1

Lookup: Given the entry NC(=O)c1ncn(C2OC(CO)C(O)C2O)c1O (stereo not drawn) , report its measured inhibition.
Found: -9.64

Lookup: Given the entry O=C1N=c2ccccc2=C1c1c(O)[nH]c2ccccc12 , report its measured inhibition.
Found: 96.6

Lookup: Given the entry NC(=O)c1cccc2[nH]c(-c3ccc(C4CCCN4)cc3F)nc12 (stereo not drawn) , report its measured inhibition.
Found: 48.1

Lookup: Given the entry O=C(O)c1cc2cccc([N+](=O)[O-])c2[nH]1 , report its measured inhibition.
Found: -29.3

Lookup: Given the entry CC(C)OC(=O)[C@H](C)NP(=O)(OC[C@H]1O[C@@H](n2ccc(=O)[nH]c2=O)C(C)(F)[C@@H]1O)Oc1ccccc1 (stereo partly drawn) , report its measured inhibition.
Found: -16.1

Lookup: Given the entry O=C(CCSc1nc2ccccc2c(=O)[nH]1)NC1CCC(c2nnc(-c3ccccc3)o2)CC1 (stereo not drawn) , report its measured inhibition.
Found: -4.17

Lookup: Given the entry C=C1CCC(O)CC1=CC=C1CCCC2(C)C1CCC2C(C)C=CC(C)C(C)C (stereo not drawn) , report its measured inhibition.
Found: -14.6

----------
assay: galactose survival enhancers in mitochondrial complex I cybrids – cell-based, galactose medium, ATP luminescence, primary screen (AID 1645843); settings: complex I mutant cybrid cells, 72 h;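 further: positive z means more ATP and so rescue of galactose-driven cybrid death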
Activity calls are given as the source filed them.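 The calls were made as follows: active = z-score of at least 1.8 in each of two replicates, scored against plate mean and spread of sample wells; inactive = the rest.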
Your response should consist of one outcome taken from active, inactive

[
  {
    "compound": "CN(C)c1cccc(NC(=O)c2cc(NCc3cnn(C)c3)cc(S(=O)(=O)N3CCCC3)c2)c1",
    "discrete-label": "inactive"
  },
  {
    "compound": "COC(=O)CN1CCN(c2ncnc3sccc23)C(C)C1=O (configuration not stated)",
    "discrete-label": "inactive"
  },
  {
    "compound": "Cn1nc(-c2cccnc2)c2[nH]c(-c3ccccc3OC(F)F)nc21",
    "discrete-label": "inactive"
  },
  {
    "compound": "Cn1c(=O)c2[nH]c(-c3ccc(S(=O)(=O)O)cc3)nc2n(C)c1=O",
    "discrete-label": "inactive"
  },
  {
    "compound": "C[N+](C)(C)CCOP(=O)(O)OP(=O)([O-])OC[C@H]1O[C@@H](n2ccc(N)nc2=O)C(O)[C@H]1O (some centres not stated)",
    "discrete-label": "inactive"
  },
  {
    "compound": "Cc1nsc(NC(=O)N2CCC(N)CC2)n1",
    "discrete-label": "inactive"
  },
  {
    "compound": "Cc1ccc(NC(=O)c2csc(Cc3ccccc3)n2)cn1",
    "discrete-label": "inactive"
  },
  {
    "compound": "O=C(c1cc(-c2cncnc2)nc2cc(F)ccc12)N1CCCC1Cc1cccnc1 (configuration not stated)",
    "discrete-label": "inactive"
  }
]

Lookup: Can you look up the reported call for COc1ccc(CN2C(=O)N(C)C3(CCN(Cc4nc(-c5ccccc5)cs4)CC3)C2=O)cc1 for me?
Found: inactive

Lookup: Can you look up the reported call for O=[N+]([O-])c1ccc2[nH]ncc2c1 for me?
Found: inactive

Lookup: Can you look up the reported call for Cc1c(CNC(=O)C(=O)c2c(-c3ccccc3)cc3ccccn23)cnn1C for me?
Found: inactive

Lookup: Can you look up the reported call for Cc1cc(C(=O)Nc2ccc3c(c2)CC(=O)N3)c(C)o1 for me?
Found: inactive

Lookup: Can you look up the reported call for CC1CCCCN1Cc1ccc(-c2nc(CCn3cccn3)cc(=O)[nH]2)cc1 (configuration not stated) for me?
Found: inactive

Lookup: Can you look up the reported call for N[C@@H](Cc1cnc[nH]1)C(=O)O for me?
Found: inactive

Lookup: Can you look up the reported call for O=C(NCC1CCCO1)[C@@H]1C[C@H](CN2CCOCC2)CN(Cc2ccc3ccccc3c2)C1 (some centres not stated) for me?
Found: inactive

Lookup: Can you look up the reported call for COC1C=CO[C@@]2(C)Oc3c(C)c(O)c4c(O)c(c(C=NN5CCN(C6CCCC6)CC5)c(O)c4c3C2=O)NC(=O)C(C)=CC=CC(C)C(O)C(C)C(O)C(C)C(OC(C)=O)C1C (some centres not stated) for me?
Found: inactive

Lookup: Can you look up the reported call for CCC1CN(C(=O)c2cc(-c3cnn(C)c3)nc3c(C)cccc23)CCN1C (configuration not stated) for me?
Found: inactive
